# Kd values compiled below
# TEST_TARGET: T1, Activin A (UniProt P08476 311-426)
# T1 sequence (looked up): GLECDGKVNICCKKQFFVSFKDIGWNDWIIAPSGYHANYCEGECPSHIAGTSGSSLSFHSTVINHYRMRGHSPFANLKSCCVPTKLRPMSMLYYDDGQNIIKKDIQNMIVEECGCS
# PROTOCOL_NOTES: SPR, Biacore 3000; receptor fusion captured on chip, ligand in solution
Could you give me the number in nM? Just the number is fine.

// worked examples, Kd included
1. ActRIIa/b-delta 9m2 (SEQ ID NO: 38) fused to the N-terminus of hFc through a GGG linker (Fc fusion, also called ActRIIa/bΔ9m2 variant; not shown: human Fc (hFc)) GAILGRSETQECLFYNANWELDRTNQTGVERCEGEKDKRLHCYATWRNISGSIEIVKKGCWLDDINCYDRTDCVETKENPQVYFCCCEGNMCNEKFSYFPEMEVTQPTSGGG    0.17
2. ActRIIa/b+ (SEQ ID NO: 150) fused to the N-terminus of hFc through a GGG linker (Fc fusion, also called ActRIIab+ variant; not shown: human Fc (hFc)) GAILGRSETQECLFYNANWELERTNQTGVERCEGEKDKRLHCYATWRNISGSIEIVAKGCWLDDFNCYDRTDCVETEENPQVYFCCCEGNMCNEKFSYFPEMEVTQPTSGGG    0.242
3. ActRIIa/b-delta 9m4 (SEQ ID NO: 44) fused to the N-terminus of hFc through a GGG linker (Fc fusion, also called ActRIIa/bΔ9m4 variant; not shown: human Fc (hFc)) GAILGRSETQECLFYNANWELDRTNQTGVEPCEGEKDKRLHCYATWRNISGSIEIVKKGCWLDDFNCYDRTDCVETKENPQVYFCCCEGNMCNEKFSYFPEMEVTQPTSGGG    0.375

What measured Kd goes with extracellular ActRIIa (SEQ ID NO: 73) fused to the N-terminus of hFc through a GGG linker (Fc fusion, also called ActRIIa (19-127); wild-type extracellular ActRIIa; not shown: human Fc (hFc)) AILGRSETQECLFFNANWEKDRTNQTGVEPCYGDKDKRRHCFATWKNISGSIEIVKQGCWLDDINCYDRTDCVEKKDSPEVYFCCCEGNMCNEKFSYFPEMEVTQPTSGGG ?
1
